tested on: EKVX NSCLC; experiment: NCI-60 one-dose screen, 48 h; conditions: 10 µM unless noted
Compounds without any hit were thinned out: in the full panel of roughly 83,000, 20% have a hit. Activity calls are given as the source filed them. The calls were made as follows: active = growth percent below 10; inactive = the rest.
Choose one outcome from this list and give only that: yes for active, no for inactive

Here's what some known entries look like.
| compound | group |
| --- | --- |
| CC1=C(CCCOC(=O)[C@H](N)CC(C)C)C2=C(C)C3(CC3)[C@@](C)(O)C(=O)C2=C1 | no |
| CC[C@H](C)[C@H](NC(=O)[C@H]1CCCCN1C)C(=O)N(C)[C@H](C[C@@H](OC(C)=O)c1nc(C(=O)N[C@@H](Cc2ccccc2)C[C@H](C)C(=O)OC)cs1)C(C)C | no |
| CC12CCC3C(CCC4Cc5[nH]c6ccccc6c5CC43C)C1CCC2O (stereo not given) | no |
| COC(=O)[C@H](Cc1ccccc1)NNC(=O)c1csc([C@@H](C[C@H](C(C)C)N(C)C(=O)[C@@H](NC(=O)[C@H]2CCCCN2C)C2CC2)OC(C)=O)n1 | no |
| COC(=O)[C@@H](C)C[C@H](Cc1ccccc1)NC(=O)c1csc([C@@H](C[C@H](C(C)C)N(C)C(=O)[C@@H](NC(=O)[C@H]2CCCCN2C)C(C(F)(F)F)C(F)(F)F)OC(C)=O)n1 | no |
| Nc1ccc(-c2nc3cc(F)ccc3[se]2)cc1F | no |

Query: recorded result category for COC(=O)C12CC(NC(=O)c3csc([C@@H](C[C@H](C(C)C)N(C)C(=O)[C@@H](NC(=O)[C@H]4CCCCN4C)C4CC4)OC(C)=O)n3)(C1)C2 in this test no

# fetch the recorded call for COc1ccc(O)c(CNC(=O)CN2CCCC2=O)c1 here no

Status in this test for O=C(Nc1ccc([As]=[As]c2ccc(NC(=O)c3ccccc3)cc2)cc1)c1ccccc1 (stereo not given) ? yes

Hey, what did the test say about CC(C)(C)C(=O)OCOP(=O)(NCc1ccccc1)C1CCCN(O)C1=O (stereo not given) ? no

Entry CC[C@H](C)[C@H](NC(=O)[C@H]1CCCCN1C)C(=O)N(C)[C@H](C[C@@H](OC(C)=O)c1cccc(C(=O)N[C@@H](Cc2ccccc2)C[C@H](C)C(=O)O)n1)C(C)C : call = ? no

Any idea what this test logged for CCCCCCCCCCCCCCCCCC1OC[C@H](COC(=O)O[C@@H](C(=O)O[C@H]2C[C@@]3(O)[C@@H](OC(=O)c4ccccc4)[C@@H]4[C@]5(OC(C)=O)CO[C@@H]5C[C@H](O)[C@@]4(C)C(=O)[C@H](OC(C)=O)C(=C2C)C3(C)C)[C@@H](NC(=O)c2ccccc2)c2ccccc2)O1 (stereo not given in full) ? no

Assay result, entry COc1cc2c(cc1OCCCCCn1c(-c3ccco3)nc3ccccc31)N=C[C@@H]1CCCN1C2=O — outcome? no

Record lookup: outcome of this test for C=CCn1cc(C=C2C(=O)N(C)C(=O)N(C)C2=O)c2ccccc21 ? no

Which outcome did this test record for the compound CCCCCCCCOC(=O)CCN1CC1 ? no

###

tested on: KM12 colon; test: NCI-60 one-dose screen, 48 h; conditions: 10 µM unless noted
Compounds without any hit were thinned out: in the full panel of roughly 83,000, 20% have a hit. The source made the active and inactive calls. The calls were made as follows: active = growth percent below 10; inactive = the rest.
The reply should name one outcome from active, inactive

| molecule | group |
| --- | --- |
| COC(=O)[C@@H](C)C[C@H](Cc1ccccc1)NC(=O)c1csc([C@@H](C[C@H](C(C)C)N(C)C(=O)C2(NC(=O)[C@H]3CCCCN3C)CC2)OC(C)=O)n1 | active |

Outcome? Nc1ncnc2n[nH]nc12 inactive

Name the outcome recorded for CC12CCC3C(C=CC4=C(N)C(=O)CCC43C)C1CCC2=O (centres undefined) in the assay. inactive

Answer briefly: the call reported for CN1CCCCC1C(C)(O)c1ccccc1 (centres undefined) in this assay. inactive

Which outcome was assigned to C/C1=C/C(=O)O[C@@H]2C[C@@H](CC[C@H](C)/C=C\C=C\CC1)O[C@@](O)([C@@H]1CSC(=O)N1CO)C2 in this test? inactive

Short answer needed: outcome of this test for O=C(Nc1ccc(Cl)cc1)Nc1nccs1 ? inactive

# outcome recorded in this test, key = CN1CCC(c2c[nH]c3ccccc23)C1 (centres undefined) inactive

Test call, this molecule: O[C@H](CN1CC1)[C@@H](O)CN1CC1 inactive

Please state the recorded outcome for this molecule: CC12CC=CCC1CCC1C2CCC2(C)C(c3ccc(=O)oc3)CCC12O (centres undefined) active

Kindly provide the recorded test outcome for the following molecule: Cc1ccc(C(=O)NCCCOc2ccc(N)cc2Cl)cc1S(=O)(=O)F inactive

Call for entry CC[C@H](C)[C@H](NC(=O)[C@H]1CCCCN1C)C(=O)N(C)[C@H](CCc1nc(C(=O)N[C@@H](Cc2ccccc2)C[C@H](C)C(=O)OC)cs1)C(C)C : inactive

For COC(=O)[C@@H](C)C[C@H](Cc1ccccc1)NC(=O)c1csc([C@@H](C[C@H](C(C)C)N(C)C(=O)[C@@H](NC(=O)CN(C)C)C2CC2)OC(C)=O)n1 , which call appears in the assay record? active

Please indicate how the test categorized CCN(CC)c1ccc2c(c1)OC(N)=C(C#N)C2c1cc(OC)c2c(c1)OCO2 (centres undefined) . active
